# System: 454973-116-R2-J3-PDC complex spheroid viability;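 further: spheroids exposed to drugs for seven days before measurement; percent viability relative to DMSO vehicle control wells taken as 100%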
# assay_comment: Anticancer human tumor 454973-116-R2-J3-PDC patient-derived pancreatic carcinoma cell line growth inhibition [POLQ]
# conditions: second compound 10 µM; first compound 1 µM; stronger effect = lower value
# Protocol: Multicellular complex tumor spheroid response to Polymerase (POL) inhibitors (novobiocin, ART-558, RP6685) in combination with a variety of drugs and investigational agents in selected tumor cell lines The POL inhibitors (novobiocin, ART-558, and RP6685) were evaluated both individually and in combination with standard of care and investigational anticancer small molecules within a complex spheroid model of solid tumors. . […]
As shown below, each of these molecules has a reported viability, T/C value.
Reply with just the number (in %).

COc1cc(C2c3cc4c(cc3C(OC3OC5COC(C)OC5C(O)C3O)C3COC(=O)C23)OCO4)cc(OC)c1O (stereo not given) + COC1C(OC(N)=O)C(O)C(Oc2ccc3c(O)c(NC(=O)c4ccc(O)c(CC=C(C)C)c4)c(=O)oc3c2C)OC1(C)C :: 61.4
CC1COCCN1c1cc(C2(O)CC3CCC(C2)O3)c2cnn(-c3ccn[nH]3)c2n1 (stereo not given) + Cc1cccc(N(C)C(=O)C2C(O)CCN2c2nc(C)cc(C(F)(F)F)c2C#N)c1 :: 21.4
COc1cccc2c1C(=O)c1c(O)c3c(c(O)c1C2=O)CC(O)(C(=O)CO)CC3OC1CC(N)C(O)C(C)O1 (stereo not given) + Cc1cccc(N(C)C(=O)C2C(O)CCN2c2nc(C)cc(C(F)(F)F)c2C#N)c1 :: 7.02
O=C(Nc1ccc(O)c(NS(=O)(=O)c2ccc(F)cc2)c1)c1ccc(-c2ccccc2)cc1 + Cc1cccc(N(C)C(=O)C2C(O)CCN2c2nc(C)cc(C(F)(F)F)c2C#N)c1 :: 105

[Q] // viability, T/C lookup, key: COc1cc(C2c3cc4c(cc3C(OC3OC5COC(C)OC5C(O)C3O)C3COC(=O)C23)OCO4)cc(OC)c1O (stereo not given) + Cc1cccc(N(C)C(=O)C2C(O)CCN2c2nc(C)cc(C(F)(F)F)c2C#N)c1
[A] 47

Reference source: PubChem BioAssay AID1963846
